Assay: Phase I single ascending dose study in humans, pharmacokinetics
Format: in vivo, human
Details: human, plasma; single oral 500 mg capsule, healthy humans, mean
Structures can show the parent of a compound that is named as a salt.
ASSAY_ENDPOINT: Tmax (min)
Write the value in min as a bare number.

For the molecule COc1ccc(CC(=O)O)cc1Oc1ccc(NC(=O)C(C)(C)C)cc1CSC(C)(C)C [Compound 2, sodium salt] , give its reported Tmax.
35

----------
Assay: Phase I single ascending dose study in humans, pharmacokinetics
Format: in vivo, human
Conditions: human, plasma; single oral 500 mg capsule, healthy humans, mean; read-out: t1/2 (converted)
Structures can show the parent of a compound that is named as a salt.
ASSAY_ENDPOINT: half-life (h)
Write the value in h as a bare number.

For the molecule COc1ccc(CC(=O)O)cc1Oc1ccc(NC(=O)C(C)(C)C)cc1CSC(C)(C)C [Compound 2, sodium salt] , give its reported half-life.
14.1

----------
Experiment: Phase I single ascending dose study in humans, pharmacokinetics
Type: in vivo, human
Conditions: human, plasma; single oral 300 mg capsule, healthy humans, mean
Source text: Example 22: Phase I Study in Humans This is a phase 1, Single-Center, Double-Blind Study of Compound 2 in healthy volunteers. To assess: (1) the safety and tolerability of single and multiple doses of Compound 2 following oral administration; and (2) the pharmacokinetics (PK) of Compound 2 after single and multiple doses; and (3) the effects of the pharmacodynamic (PD) responses in healthy subjects to Compound 2 as measured by a PGD2-induced eosinophil shape change assay (ESC). […]
Counter-ions that a name gives are not always drawn.
ASSAY_ENDPOINT: Tmax (min)
Write the value in min as a bare number.

For the compound COc1ccc(CC(=O)O)cc1Oc1ccc(NC(=O)C(C)(C)C)cc1CSC(C)(C)C [Compound 2, sodium salt] , give its reported Tmax.
55.2

----------
Target: guinea pig DP2 receptor (Cavia porcellus, UniProt H0W1T0)
Sequence (H0W1T0 1-391): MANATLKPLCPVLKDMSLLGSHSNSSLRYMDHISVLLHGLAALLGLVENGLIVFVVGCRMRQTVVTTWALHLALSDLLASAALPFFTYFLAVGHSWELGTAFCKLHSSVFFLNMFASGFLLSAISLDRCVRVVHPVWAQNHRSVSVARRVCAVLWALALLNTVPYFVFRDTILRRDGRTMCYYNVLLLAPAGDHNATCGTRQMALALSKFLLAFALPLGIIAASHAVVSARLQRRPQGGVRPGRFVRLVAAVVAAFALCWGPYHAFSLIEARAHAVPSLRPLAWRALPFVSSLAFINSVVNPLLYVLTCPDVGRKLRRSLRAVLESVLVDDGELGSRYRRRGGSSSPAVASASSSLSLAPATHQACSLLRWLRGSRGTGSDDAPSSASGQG
Assay: In vitro DP2/CRTH2 radioligand ([3H]PGD2) membrane binding assay
Conditions: average; without serum albumin; read-out: IC50, inhibition of radiolabeled PGD2 binding to guinea pig DP2
ASSAY_ENDPOINT: IC50 (nM)
Write the value in nM as a bare number.

For the compound COc1ccc(CC(=O)O)cc1Oc1ccc(NC(=O)C(C)(C)C)cc1CSC(C)(C)C , give its reported IC50.
10.6

----------
Test: Phase I single ascending dose study in humans, pharmacokinetics
Format: in vivo, human
Settings: human, plasma; single oral 150 mg capsule, healthy humans, mean
Where a name gives a salt, the structure may show the parent alone.
ASSAY_ENDPOINT: AUC(0-t) (ng·h/mL)
Write the value in ng·h/mL as a bare number.

For the molecule COc1ccc(CC(=O)O)cc1Oc1ccc(NC(=O)C(C)(C)C)cc1CSC(C)(C)C [Compound 2, sodium salt] , give its reported AUC(0-t).
3450

----------
Test: Plasma concentrations in guinea pig DK-PGD2 leukocyte influx study
Type: in vivo
Details: Hartley, 18.5 hours after oral 30 mg/kg, read-out: concentration of Compound 1 in plasma
ASSAY_ENDPOINT: concentration at 18.5 h (nM)
Write the value in nM as a bare number.

For the compound COc1ccc(CC(=O)O)cc1Oc1ccc(NC(=O)C(C)(C)C)cc1CSC(C)(C)C [Compound 1] , give its reported concentration at 18.5 h.
21

----------
Experiment: Phase I single ascending dose study in humans, pharmacokinetics
Assay type: in vivo, human
Settings: human, plasma; single oral 300 mg capsule, healthy humans, mean
Structures can show the parent of a compound that is named as a salt.
ASSAY_ENDPOINT: AUC(0-inf) (ng·h/mL)
Write the value in ng·h/mL as a bare number.

For the compound COc1ccc(CC(=O)O)cc1Oc1ccc(NC(=O)C(C)(C)C)cc1CSC(C)(C)C [Compound 2, sodium salt] , give its reported AUC(0-inf).
6980

Entry source: patent US9688624B2
